// reported pKd for each item listed
- TESTED TARGET: T1, Clostridium difficile toxin A (TcdA) (Clostridium difficile strain 10463, UniProt P16154 1-2710)
- T1 construct: range 1-2710
- T1 sequence (P16154 whole entry): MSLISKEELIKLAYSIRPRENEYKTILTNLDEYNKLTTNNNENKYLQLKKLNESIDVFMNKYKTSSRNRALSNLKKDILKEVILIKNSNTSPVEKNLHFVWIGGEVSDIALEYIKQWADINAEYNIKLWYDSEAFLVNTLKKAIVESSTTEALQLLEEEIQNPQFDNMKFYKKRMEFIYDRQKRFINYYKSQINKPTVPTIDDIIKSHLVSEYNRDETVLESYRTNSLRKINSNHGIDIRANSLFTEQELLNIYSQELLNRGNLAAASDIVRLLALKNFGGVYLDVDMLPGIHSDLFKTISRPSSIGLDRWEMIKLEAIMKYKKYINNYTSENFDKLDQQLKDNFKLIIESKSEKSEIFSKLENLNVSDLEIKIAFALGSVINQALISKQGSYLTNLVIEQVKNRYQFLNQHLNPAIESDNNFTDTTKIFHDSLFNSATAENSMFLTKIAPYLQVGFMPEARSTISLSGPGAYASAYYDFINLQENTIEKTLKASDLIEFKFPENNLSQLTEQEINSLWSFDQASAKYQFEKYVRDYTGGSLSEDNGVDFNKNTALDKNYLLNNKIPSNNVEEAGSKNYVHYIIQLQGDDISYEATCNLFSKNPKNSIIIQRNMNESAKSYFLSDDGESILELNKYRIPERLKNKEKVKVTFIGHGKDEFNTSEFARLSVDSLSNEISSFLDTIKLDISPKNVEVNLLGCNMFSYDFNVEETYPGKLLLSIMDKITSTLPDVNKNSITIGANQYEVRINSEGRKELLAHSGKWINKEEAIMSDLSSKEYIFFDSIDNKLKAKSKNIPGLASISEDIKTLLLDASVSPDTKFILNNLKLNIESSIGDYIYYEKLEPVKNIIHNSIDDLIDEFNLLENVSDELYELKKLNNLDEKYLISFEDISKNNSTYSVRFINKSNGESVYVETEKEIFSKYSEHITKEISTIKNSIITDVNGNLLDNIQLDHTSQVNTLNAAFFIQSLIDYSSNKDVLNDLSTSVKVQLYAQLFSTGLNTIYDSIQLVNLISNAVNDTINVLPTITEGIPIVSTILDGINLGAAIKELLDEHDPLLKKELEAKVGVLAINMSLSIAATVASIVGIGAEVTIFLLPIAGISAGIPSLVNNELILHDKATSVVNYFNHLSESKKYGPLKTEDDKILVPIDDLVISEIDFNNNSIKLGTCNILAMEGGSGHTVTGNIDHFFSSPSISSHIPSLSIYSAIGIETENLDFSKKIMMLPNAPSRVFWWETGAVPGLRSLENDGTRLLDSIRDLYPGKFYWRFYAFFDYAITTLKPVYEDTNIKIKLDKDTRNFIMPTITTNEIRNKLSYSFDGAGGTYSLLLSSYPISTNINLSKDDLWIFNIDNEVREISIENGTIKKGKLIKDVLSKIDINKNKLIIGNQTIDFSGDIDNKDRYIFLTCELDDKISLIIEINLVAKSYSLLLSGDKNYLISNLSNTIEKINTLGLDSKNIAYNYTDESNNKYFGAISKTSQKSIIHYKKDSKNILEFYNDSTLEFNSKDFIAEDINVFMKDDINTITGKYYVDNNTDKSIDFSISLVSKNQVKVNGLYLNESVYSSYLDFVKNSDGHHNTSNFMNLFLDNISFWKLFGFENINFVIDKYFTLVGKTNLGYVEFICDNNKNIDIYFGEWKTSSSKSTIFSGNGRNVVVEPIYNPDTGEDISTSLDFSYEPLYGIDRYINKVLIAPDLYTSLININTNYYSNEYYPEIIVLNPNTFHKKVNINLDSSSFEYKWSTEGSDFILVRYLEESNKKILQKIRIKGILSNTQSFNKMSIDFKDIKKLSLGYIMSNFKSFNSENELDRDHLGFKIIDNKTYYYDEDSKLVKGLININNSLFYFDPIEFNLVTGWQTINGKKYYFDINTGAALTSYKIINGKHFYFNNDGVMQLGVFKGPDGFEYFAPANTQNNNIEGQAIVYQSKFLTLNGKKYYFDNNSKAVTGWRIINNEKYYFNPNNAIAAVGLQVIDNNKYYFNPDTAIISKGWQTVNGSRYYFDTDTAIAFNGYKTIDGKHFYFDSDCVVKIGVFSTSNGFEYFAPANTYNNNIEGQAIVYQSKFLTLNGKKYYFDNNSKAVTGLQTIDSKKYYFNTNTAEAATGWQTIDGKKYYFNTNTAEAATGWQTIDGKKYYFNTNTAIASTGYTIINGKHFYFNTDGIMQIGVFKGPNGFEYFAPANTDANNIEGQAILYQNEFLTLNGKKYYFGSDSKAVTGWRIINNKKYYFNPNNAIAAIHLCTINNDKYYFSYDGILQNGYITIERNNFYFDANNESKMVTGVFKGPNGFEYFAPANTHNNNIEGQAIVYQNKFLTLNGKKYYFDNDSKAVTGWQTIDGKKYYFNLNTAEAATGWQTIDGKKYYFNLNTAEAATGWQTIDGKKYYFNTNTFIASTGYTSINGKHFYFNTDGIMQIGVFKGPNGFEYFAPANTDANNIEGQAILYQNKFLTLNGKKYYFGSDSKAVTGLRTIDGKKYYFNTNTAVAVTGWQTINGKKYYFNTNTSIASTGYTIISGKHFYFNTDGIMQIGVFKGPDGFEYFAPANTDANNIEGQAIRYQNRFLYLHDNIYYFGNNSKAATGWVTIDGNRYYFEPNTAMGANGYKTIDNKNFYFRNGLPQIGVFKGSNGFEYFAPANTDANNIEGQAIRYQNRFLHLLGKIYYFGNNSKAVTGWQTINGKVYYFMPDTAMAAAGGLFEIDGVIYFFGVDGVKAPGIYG
- ASSAY INFO: SPR, TcdA immobilized; same value as in Table 1
pKd: −log10 of the molar value.
VALUE KIND: pKd

{"BINDER": "A19.2 (VHH, also called anti-TcdA VHH A19.2) VHH: QVKLEESGGGLVQPGGSLRLSCAASGRTLSSYIVAWFRQAPGKEREFVAGISRRGGNSAYVESVKGRFTISRDNAKNTVYLQMNSLKPEDTAVYYCAADGSVAGWGRRSVSVSSYDYWGQGTQVTVSS", "RECORDED RESULT": 6.54}
{"BINDER": "A4.2 (VHH, also called anti-TcdA VHH A4.2) VHH: QVKLEESGGGLVQAGGSLRLSCAASGRTFNTLSMGWFRQAPGKEREFVAAVSRSGGSTYYADSVKGRFTISRDNAKNTVYLQMNSLKPEDTAVYYCAAAATKSNTTAYRLSFDYWGQGTQVTVSS", "RECORDED RESULT": 7.62}
{"BINDER": "A24.1 (VHH, also called anti-TcdA VHH A24.1) VHH: QVQLVESGGGLVQAGGSLRLSCAASIRSFSNRNMGWFRQPPGKEREFVAGISWGGGSTRYADSVKGRFTISRDNAKKTVYLQMNSLKPEDTAVYYCAAEFGHNIATSSDEYDYWGQGTQVTVSS", "RECORDED RESULT": 6.59}
{"BINDER": "A20.1 (VHH, also called anti-TcdA VHH A20.1) VHH: QVQLVESGGGLAQAGGSLRLSCAASGRTFSMDPMAWFRQPPGKEREFVAAGSSTGRTTYYADSVKGRFTISRDNAKNTVYLQMNSLKPEDTAVYYCAAAPYGANWYRDEYAYWGQGTQVTVSS", "RECORDED RESULT": 8.70}
{"BINDER": "A5.1 (VHH, also called anti-TcdA VHH A5.1) VHH: QVKLEESGGGLVQAGGSLRLSCAASGRTFSMYRMGWFRQAPGKEREFVGVITRNGSSTYYADSVKGRFTISRDNAKNTVYLQMNSLKPEDTALYYCAATSGSSYLDAAHVYDYWGQGTQVTVSS", "RECORDED RESULT": 8.52}
